# Test system: Staphylococcus aureus
# PROTOCOL_DETAILS: Antibacterial activity against Staphylococcus aureus ATCC 43300 assessed as inhibition of bacterial growth measured after 18 hrs by microplate reader
# Format: functional
# CONDITION_SUMMARY: read-out: MIC100
MEASURE_NAME: log10(MIC) (log10 of the value in µg/mL)
On a log10 scale: recorded MIC, unit µg/mL.

Here are 6 molecules together with their reported answers.
>  <MOLECULE>
Cc1cc(O)c(C(C)C)cc1-c1ccccc1Cl

>  <VALUE_REPORTED>
0.90

$$$$
>  <MOLECULE>
Cc1cc(O)c(C(C)C)cc1-c1ccccc1F

>  <VALUE_REPORTED>
0.90

$$$$
>  <MOLECULE>
Cc1cc(O)c(C(C)C)cc1-c1cccc(C#N)c1

>  <VALUE_REPORTED>
1.51

$$$$
>  <MOLECULE>
Cc1cc(O)c(C(C)C)cc1Cl [CHLOROTHYMOL]

>  <VALUE_REPORTED>
1.81

$$$$
>  <MOLECULE>
Cc1cc(O)c(C(C)C)cc1-c1cccc(C(F)(F)F)c1

>  <VALUE_REPORTED>
0.90

$$$$
>  <MOLECULE>
O=C(O)c1cn(C2CC2)c2cc(N3CCNCC3)c(F)cc2c1=O [CIPROFLOXACIN]

>  <VALUE_REPORTED>
0.30

$$$$

Incoming: log10(MIC) of Cc1cc(O)c(C(C)C)cc1-c1ccc(Cl)cc1 on Staphylococcus aureus?
Outgoing: 0.90

Incoming: # repeat for Cc1cc(O)c(C(C)C)cc1-c1ccncc1
Outgoing: 2.11

Incoming: Try this molecule next: Cc1cc(O)c(C(C)C)cc1-c1ccccc1C(=O)O
Outgoing: 1.20

Incoming: What do we get for Cc1cc(O)c(C(C)C)cc1-c1ccccc1C#N ?
Outgoing: 1.20

Incoming: What about Cc1cc(O)c(C(C)C)cc1-c1ccc(C(F)(F)F)cc1 ?
Outgoing: 0.60

Incoming: Next entry: Cc1cc(O)c(C(C)C)cc1-c1ccc(C(=O)O)cc1
Outgoing: 1.20

Incoming: Query Cc1cc(O)c(C(C)C)cc1-c1cccc(F)c1 next
Outgoing: 1.20

Incoming: What about this molecule? COc1ccc(-c2cc(C(C)C)c(O)cc2C)cc1
Outgoing: 1.20

Incoming: One more molecule: Cc1cc(O)c(C(C)C)cc1-c1ccc(F)cc1
Outgoing: 1.20

Incoming: Would you mind doing Cc1cc(O)c(C(C)C)cc1-c1cccc(C(=O)O)c1 as well?
Outgoing: 0.90

Incoming: Can you handle Cc1cc(O)c(C(C)C)cc1-c1ccccc1C(F)(F)F next?
Outgoing: 0.90
